METHOD SUMMARY: Log P (n-octanol and buffer)
Assay type: physicochemical
CONDITIONS USED: at pH 9.0
EXPERIMENTAL READOUT: logP
The reply should be a number, written without any unit.

Prompt: Give the measured logP of Cc1cc(C)c(Nc2ccnc(Nc3ccc(C#N)cc3)n2)c(C)c1 [dapivirine] .
Response: 5.27
